- Experimental target: CD3 epsilon/delta heterodimer (Homo sapiens, UniProt P07766;P04234 P07766:23-126,P04234:22-105)
- Sequence (P07766 23-126, stated change not applied, chain 1 of 2): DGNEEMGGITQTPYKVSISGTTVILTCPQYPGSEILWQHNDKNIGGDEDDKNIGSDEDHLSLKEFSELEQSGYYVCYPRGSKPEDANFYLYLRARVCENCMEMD
- Sequence (P04234 22-105, stated change not applied, chain 2 of 2): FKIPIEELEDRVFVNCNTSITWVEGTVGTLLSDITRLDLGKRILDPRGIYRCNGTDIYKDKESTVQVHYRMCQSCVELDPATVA
- Procedure text: SPR; steady state; kinetic 3.4 nM (Table 6)
- Experimental parameters: tags: C-terminal human IgG1 Fc fusion, AcroBiosystems; chain copies: heterodimer 1:1 (inferred); label: 5'-biotin-TEG
pKd: −log10 of the molar value.
Property name: pKd

>  <Binder>
GGAGTGGAGTATTCCGGGTTTGGCATCGGGCCTGGCGAAG (ssDNA) [CELTIC_4s]

>  <Reported result>
6.84

$$$$
